Each record here notes measured normalised viability.
- Tested on: HCC1143
- PROTOCOL_DETAILS: normalised viability (% of control), CellTiter-Blue; higher = more viable cells (about 100 = DMSO control)
- TEST_CONTEXT: 10 nM; incubation time: 72 h

# COMPOUND, normalised viability [%]
data = [
    ("NCCCNCCSP(=O)(O)O [Amifostine]", 79.2),
    ("CC[C@H](Nc1ncnc2[nH]cnc12)c1nc2cccc(F)c2c(=O)n1-c1ccccc1 [CAL-101]", 99.4),
    ("CCCCC(=O)OCC(=O)[C@]1(O)Cc2c(O)c3c(c(O)c2[C@@H](O[C@H]2C[C@H](NC(=O)C(F)(F)F)[C@H](O)[C@H](C)O2)C1)C(=O)c1c(OC)cccc1C3=O [Valrubicin]", 97.2),
    ("C1CN1c1nc(N2CC2)nc(N2CC2)n1 [Triethylenemelamine]", 97.8),
    ("O=C(O)C(=O)O.[NH-][C@@H]1CCCC[C@H]1[NH-].[Pt+2] [Oxaliplatin]", 82.2),
    ("Nc1nc(F)nc2c1ncn2[C@@H]1O[C@H](CO)[C@@H](O)[C@@H]1O [Fludarabine]", 75.8),
    ("Nc1ccccc1NC(=O)c1ccc(CNC(=O)OCc2cccnc2)cc1 [Entinostat]", 84.5),
    ("Oc1ncc(N(CCCl)CCCl)c(O)n1 [Uracil mustard]", 78.4),
]

---

- Test system: HCC1599
- PROTOCOL_DETAILS: normalised viability (% of control), CellTiter-Blue; higher = more viable cells (about 100 = DMSO control)
- TEST_CONTEXT: 1000 nM; incubation time: 72 h
Each record here notes measured normalised viability.
MEASURE: normalised viability (%)

# CHEMICAL_STRUCTURE, MEASURE, TEST_RESULT
data = [
    ("CCc1cncnc1N1CCN(Cc2nc3ccc(C(F)(F)F)cc3[nH]2)CC1", "normalised viability", 83),
    ("C=CC(=O)N1CCC[C@@H](n2nc(-c3ccc(Oc4ccccc4)cc3)c3c(N)ncnc32)C1", "normalised viability", 82.6),
    ("C=CC(=O)Nc1cc2c(Nc3ccc(F)c(Cl)c3)ncnc2cc1OCCCN1CCOCC1", "normalised viability", 106),
    ("O=C(O)C(=O)O.[NH-][C@@H]1CCCC[C@H]1[NH-].[Pt+2]", "normalised viability", 79.6),
    ("Nc1ccccc1NC(=O)c1ccc(CNC(=O)OCc2cccnc2)cc1", "normalised viability", 86.6),
    ("N#Cc1ccc(C(c2ccc(C#N)cc2)n2cncn2)cc1", "normalised viability", 70.7),
    ("CC[C@@H]1C(=O)N(C)c2cnc(Nc3ccc(C(=O)NC4CCN(C)CC4)cc3OC)nc2N1C1CCCC1", "normalised viability", 61.3),
    ("C[C@H]1C[C@@H]2[C@H]([C@@H](O)C[C@@]3(C)[C@H]2CC[C@]3(O)C(=O)CO)[C@@]2(C)C=CC(=O)C=C12", "normalised viability", 102),
    ("Cc1ccc(-c2cc(C(F)(F)F)nn2-c2ccc(S(N)(=O)=O)cc2)cc1", "normalised viability", 95.7),
]

---

Each record here notes measured normalised response.
- Tested on: MDA-MB-468
- PROTOCOL_DETAILS: normalised response (% of control), CellTiter-Glo; higher = more viable cells (100 = DMSO, 0 = benzethonium chloride kill control)
- TEST_CONTEXT: incubation time: 72 h
MEASURE: normalised response (%)

# COMPOUND, MEASURE, UNITS_LABEL, TEST_RESULT
data = [
    ("CCCCC(=O)OCC(=O)[C@]1(O)Cc2c(O)c3c(c(O)c2[C@@H](O[C@H]2C[C@H](NC(=O)C(F)(F)F)[C@H](O)[C@H](C)O2)C1)C(=O)c1c(OC)cccc1C3=O [Valrubicin] (5000 nM)", "normalised response", "%", 22.8),
    ("Cc1ccc(-c2cc(C(F)(F)F)nn2-c2ccc(S(N)(=O)=O)cc2)cc1 [Celecoxib] (10000 nM)", "normalised response", "%", 103),
    ("N#Cc1ccc(C(c2ccc(C#N)cc2)n2cncn2)cc1 [Letrozole] (10000 nM)", "normalised response", "%", 97),
    ("CNC(=O)c1cc(Oc2ccc(NC(=O)Nc3cc(C(C)(C)C)nn3-c3ccc4ncccc4c3)c(F)c2)ccn1 [Rebastinib] (1000 nM)", "normalised response", "%", 102),
    ("CCN(CC)CCCC(C)Nc1c2ccc(Cl)cc2nc2ccc(OC)cc12 (stereo not given) [Mepacrine] (50000 nM)", "normalised response", "%", 102),
    ("Nc1ccccc1NC(=O)c1ccc(CNC(=O)OCc2cccnc2)cc1 [Entinostat] (10000 nM)", "normalised response", "%", 19.1),
    ("CCc1cncnc1N1CCN(Cc2nc3ccc(C(F)(F)F)cc3[nH]2)CC1 (10000 nM)", "normalised response", "%", 70),
    ("C=CC(=O)Nc1cc2c(Nc3ccc(F)c(Cl)c3)ncnc2cc1OCCCN1CCOCC1 [Canertinib] (10000 nM)", "normalised response", "%", 2.49),
    ("O=C(/C=C/c1cccnc1)NCCCCC1CCN(C(=O)c2ccccc2)CC1 [Daporinad] (1000 nM)", "normalised response", "%", 0.79),
    ("O=C(Cc1ccc(-c2ccc(OCCN3CCOCC3)cc2)cn1)NCc1ccccc1 [KX2-391] (10000 nM)", "normalised response", "%", 28),
]
